Entry source: patent US6962931B2

experiment: Pharmacokinetics in dogs; type: in vivo, Male Beagle dogs; settings: male, Beagle, dog, plasma, po, 60 mg, fasted, Miglyol 812/Triacetin/Polysorbate 80/Capmul MCM (22/27/20/31)
measuredQuantity: Cmax (ng/mL)

> print(dat)
                                 smilesrepr  endpointunit  numericresult
1  CC[C@@H]1C[C@H](N(Cc2cc(C(F)(F)F)cc(C(F)(F)F)c2)C(=O)OC)c2cc(C(F)(F)F)ccc2N1C(=O)OC(C)C         ng/mL            200

====

assay: PK in rat, oils or preformed emulsions by oral gavage; parameters: species or system Sprague Dawley rats; settings: Sprague-Dawley, in vivo, 300 mg/kg, amorphous anhydrous, Olive oil
measuredQuantity: Cmax (ng/mL)

> print(dat)
                                   compound  measuredquantity  endpointunit  numericresult
1  CCOC(=O)N1c2ccc(C(F)(F)F)cc2[C@@H](N(Cc2cc(C(F)(F)F)cc(C(F)(F)F)c2)C(=O)OC)C[C@H]1CC [Compound A]              Cmax         ng/mL           7300

====

test: PK in monkeys; assay type: in vivo, cynomologous monkeys; conditions: monkey, in vivo, oral, 100 mg/kg, crystalline ethanolate, Miglyol/Cremophor/water 40/10/50, 100 mg/kg, read-out: Cmax
measuredQuantity: Cmax

> print(dat)
                                   molecule  measuredquantity             result
1  CCOC(=O)N1c2ccc(C(F)(F)F)cc2[C@@H](N(Cc2cc(C(F)(F)F)cc(C(F)(F)F)c2)C(=O)OC)C[C@H]1CC [Compound A]              Cmax  400 to 1800 ng/mL

====

assay: PK in rat, oils or preformed emulsions by oral gavage; set-up: species or system Sprague Dawley rats; details: Sprague-Dawley, in vivo, 500 mg/kg, crystalline ethanolate, Miglyol
measuredQuantity: Cmax (ng/mL)

> print(dat)
                                 smilesrepr  numericresult
1  CCOC(=O)N1c2ccc(C(F)(F)F)cc2[C@@H](N(Cc2cc(C(F)(F)F)cc(C(F)(F)F)c2)C(=O)OC)C[C@H]1CC           2100
